B1: Twister Ribozyme (parent)
chain: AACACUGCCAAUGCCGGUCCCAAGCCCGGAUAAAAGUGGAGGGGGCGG

variants of: B1; experiment: self-cleavage, relative activity (ratio to wild type); higher = more cleavage; co-transcriptional
Listed here are variants together with their documented self-cleavage.
Give the figure only, with no unit attached.

>>> print(df.to_string())
   variant_name  test_value
0     U18C G42U      0.0957
1      C5A C26A         0.1

Tell me its self-cleavage given G28C G39U as the entry.
0.173

Note self-cleavage for the variant shown: A2G C5U
0.153

Tell me self-cleavage reported for U6C G36U
0.0917

Answer with the recorded self-cleavage of U37G C46A only.
0.619

Could you please provide reported self-cleavage for C8A G24U ? Thanks!
0.841

Given A30U G43C , respond with its self-cleavage.
0.229

Name the recorded self-cleavage of the item A10C C27A in your answer.
0.673
